What IC50 was measured for each of the following?

Considering Cc1ccc(C(=O)NC2=Nc3cc(N4CCOCC4)ccc3C3=NCCN23)cn1 , its IC50 with PIK3CG (human) was recorded as ≤ 100 nM

Considering CN(C)C=Nc1cncc(C(=O)NC2=Nc3ccccc3C3=NCCN23)c1 , its IC50 with PIK3CG (human) was recorded as 100 to 500 nM

Considering O/C(=C\C1=Nc2cc(N3CCOCC3)ccc2C2=NCCN12)c1ccc2[nH]cnc2c1 , its IC50 with PIK3CG (human) was recorded as ≤ 100 nM

Considering O=C(NC1=Nc2cc(Cl)ccc2C2=NCCN12)c1ccc2[nH]cnc2c1 , its IC50 with PIK3CG (human) was recorded as ≤ 100 nM

Considering O=C(NC1=Nc2ccccc2C2=NCCN12)c1csc(-c2ccncc2)n1 , its IC50 with PIK3CG (human) was recorded as > 2000 nM

Considering O=C(NC1=Nc2cc(OCCOCCO)ccc2C2=NCCN12)c1cccnc1 , its IC50 with PIK3CG (human) was recorded as 100 to 500 nM

Considering COc1cc2c(c(OC)c1C)N=C(/C=C(\O)c1ccc3[nH]cnc3c1)N1CCN=C21 , its IC50 with PIK3CG (human) was recorded as 100 to 500 nM

Considering COc1cc(C(=O)NC2=Nc3ccccc3C3=NCCN23)cc(OC)c1C , its IC50 with PIK3CG (human) was recorded as > 2000 nM

Considering O=C(NC1=Nc2ccccc2C2=NCCN12)c1csc(-c2cccnc2)n1 , its IC50 with PIK3CG (human) was recorded as > 2000 nM

Considering O/C(=C\C1=Nc2cc(-c3ccccc3)ccc2C2=NCCN12)c1cccnc1 , its IC50 with PIK3CG (human) was recorded as 100 to 500 nM

Considering COc1cc2c(c(OC)c1C)N=C(/C=C(\O)c1cccnc1)N1CCN=C21 , its IC50 with PIK3CG (human) was recorded as ≤ 100 nM

* * *

What IC50 was measured for each of the following?

Considering COc1cc2c(c(OC)c1C)N=C(/C=C(\O)c1ccc(NC(C)=O)nc1)N1CCN=C21 , its IC50 with PIK3CG (human) was recorded as ≤ 100 nM

Considering COc1cc2c(cc1OC)C1=NCCN1C(/C=C(\O)c1cccnc1)=N2 , its IC50 with PIK3CG (human) was recorded as ≤ 100 nM

Considering COc1c(OCc2nn[nH]n2)ccc2c1N=C(/C=C(\O)c1cccnc1)N1CCN=C21 , its IC50 with PIK3CG (human) was recorded as ≤ 100 nM

Considering COc1c(OCCCC(=O)N2CCOCC2)ccc2c1N=C(/C=C(\O)c1cccnc1)N1CCN=C21 , its IC50 with PIK3CG (human) was recorded as ≤ 100 nM

Considering COc1cccc2c1N=C(NC(=O)c1cccnc1Cl)N1CCN=C21 , its IC50 with PIK3CG (human) was recorded as ≤ 100 nM

Considering NS(=O)(=O)c1ccc(C(=O)NC2=Nc3ccccc3C3=NCCN23)c(Cl)c1 , its IC50 with PIK3CG (human) was recorded as > 2000 nM

Considering COc1ccc2c(c1Br)N=C(NC(=O)c1cccnc1)N1CCN=C21 , its IC50 with PIK3CG (human) was recorded as ≤ 100 nM

Considering COc1cc2c(cc1OC)C1=NCCN1C(/C=C(\O)c1ccc3[nH]cnc3c1)=N2 , its IC50 with PIK3CG (human) was recorded as ≤ 100 nM

Considering COc1c(OCC(=O)N2CCOCC2)ccc2c1N=C(/C=C(\O)c1cccnc1)N1CCN=C21 , its IC50 with PIK3CG (human) was recorded as ≤ 100 nM

Considering Cc1ccc2c(c1)C1=NCCN1C(/C=C(\O)c1cccnc1)=N2 , its IC50 with PIK3CG (human) was recorded as 100 to 500 nM

Considering CN(C=O)c1ccc(C(=O)NC2=Nc3ccccc3C3=NCCN23)cc1 , its IC50 with PIK3CG (human) was recorded as > 2000 nM

Considering O=C(NC1=Nc2ccccc2C2=NCCN12)c1ccc([N+](=O)[O-])s1 , its IC50 with PIK3CG (human) was recorded as > 2000 nM

Considering CC(=O)Nc1ccc(C(=O)NC2=Nc3cc(N4CCOCC4)ccc3C3=NCCN23)cn1 , its IC50 with PIK3CG (human) was recorded as ≤ 100 nM

Considering O/C(=C\C1=Nc2ccccc2C2=NCCN12)c1cnccn1 , its IC50 with PIK3CG (human) was recorded as 100 to 500 nM

Source listed as the Kinase Knowledgebase extract (Sharma et al. 2016).
